B1: glmS ribozyme (parent)
chain: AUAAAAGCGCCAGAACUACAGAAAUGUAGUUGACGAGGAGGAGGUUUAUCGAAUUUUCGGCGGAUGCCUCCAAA

- Variants of: B1
- test.method.notes: self-cleavage kobs at 10000 uM GlcN6P; higher = faster cleavage; RNA array
- applied.conditions: with glucosamine-6-phosphate
Fewer inactive variants are shown than the library holds.
measure.name: self-cleavage kobs at 10000 uM GlcN6P (s⁻¹)
// return numeric value only (unit: s⁻¹, not printed)

Study these solved cases before continuing.
- variant.notation: "U31A U47C U56C"
  self-cleavage kobs at 10000 uM GlcN6P / s⁻¹: 0.000333
- variant.notation: "A15C U54G"
  self-cleavage kobs at 10000 uM GlcN6P / s⁻¹: 0.00475
- variant.notation: "A14C A15U G32C C58U"
  self-cleavage kobs at 10000 uM GlcN6P / s⁻¹: "3.19e-05"
- variant.notation: "A48G A53C"
  self-cleavage kobs at 10000 uM GlcN6P / s⁻¹: "5.4e-05"
- variant.notation: "U31A U69C"
  self-cleavage kobs at 10000 uM GlcN6P / s⁻¹: 0.0039
- variant.notation: "A52G C71A"
  self-cleavage kobs at 10000 uM GlcN6P / s⁻¹: 0.000466
- variant.notation: "G40U U49G C71G"
  self-cleavage kobs at 10000 uM GlcN6P / s⁻¹: "9.53e-05"
- variant.notation: "A36U G51U C68G"
  self-cleavage kobs at 10000 uM GlcN6P / s⁻¹: "4.33e-05"

Given A15G C16G C71G , state its recorded self-cleavage kobs at 10000 uM GlcN6P.
9.34e-05

Now consider A33U C71A and answer again.
4.32e-05

Now consider U56C G66A and answer again.
0.0022

Now consider A53U G66A and answer again.
0.0144

Now consider C16U U47A and answer again.
0.0259

Now consider C16U A39U and answer again.
0.034

Now consider U65A G66U and answer again.
0.000342

Now consider G29C A53C and answer again.
0.000356

Now consider A6G U69C and answer again.
2.56e-05

Now consider G29A G66A and answer again.
0.00305

Now consider A12U U47G A52U U69G and answer again.
6.72e-05

Now consider A39G A48C and answer again.
0.00063

Now consider A15U G40A and answer again.
0.000611

Now consider A52U C71G and answer again.
8.19e-05

Now consider G40A A53G and answer again.
0.0242

Now consider C16A G29U U31C and answer again.
0.000493
